- TARGET SYSTEM: ETB receptors (Homo sapiens)
- Sequence (P24530 27-442): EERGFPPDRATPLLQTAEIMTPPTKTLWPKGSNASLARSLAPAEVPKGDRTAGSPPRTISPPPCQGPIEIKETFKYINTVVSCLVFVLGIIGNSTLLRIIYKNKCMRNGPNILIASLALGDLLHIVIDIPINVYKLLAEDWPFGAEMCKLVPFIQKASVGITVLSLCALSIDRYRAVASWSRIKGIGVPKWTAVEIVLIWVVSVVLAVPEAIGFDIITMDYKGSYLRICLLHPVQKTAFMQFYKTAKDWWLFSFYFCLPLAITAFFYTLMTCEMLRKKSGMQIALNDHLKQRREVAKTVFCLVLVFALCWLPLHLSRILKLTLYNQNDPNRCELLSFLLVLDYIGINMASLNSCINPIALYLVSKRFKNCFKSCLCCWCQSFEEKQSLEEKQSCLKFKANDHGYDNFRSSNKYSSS
OUTCOME MEASURE: pIC50
Quick note: pIC50 means taking -log10 of the concentration in moles per liter.

Entry under review: COc1ccc(Cl)c(Oc2c(NS(=O)(=O)c3ccc(C(C)(C)C)cc3)nc(C(=O)Nc3ccccc3)nc2OCCO)c1 . Reported pIC50?
7.07

----------
Parameter: log10 of IC50. Scope: all listed entries.
- TARGET SYSTEM: human ETA receptors (Homo sapiens, UniProt P25101)
- Sequence (P25101 21-427): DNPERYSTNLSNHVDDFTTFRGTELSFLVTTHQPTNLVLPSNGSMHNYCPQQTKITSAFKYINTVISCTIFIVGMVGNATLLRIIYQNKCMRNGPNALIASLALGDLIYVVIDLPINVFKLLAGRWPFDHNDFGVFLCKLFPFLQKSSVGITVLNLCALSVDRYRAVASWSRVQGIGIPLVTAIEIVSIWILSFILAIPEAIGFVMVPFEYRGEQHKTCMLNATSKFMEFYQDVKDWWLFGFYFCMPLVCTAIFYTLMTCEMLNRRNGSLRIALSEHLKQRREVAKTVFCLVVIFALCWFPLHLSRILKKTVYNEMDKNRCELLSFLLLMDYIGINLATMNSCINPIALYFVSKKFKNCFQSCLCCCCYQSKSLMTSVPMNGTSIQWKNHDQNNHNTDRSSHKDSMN
- PROTOCOL NOTES: Inhibition of endothelin binding to recombinant ETA receptors
- MEASUREMENT SETUP: 125I-endothelin, baculovirus-insect cell membranes, 20° C. 2 hours or 4° C. 24 hours
Hi team, quick reminder: these entries are log10 of IC50 (µM).

Solved cases below.
> print(dat)
                                   compound  observed.measurement
1  COc1ccc(Cl)c(Oc2c(NS(=O)(=O)c3ccc(C(C)(C)C)cc3)nc(C(=O)Nc3ccccc3)nc2OCCO)c1 [Example 9]                  1.33
2  COc1cccc(Oc2c(NS(=O)(=O)c3ccc(C(C)(C)C)cc3)nc(C(=O)Nc3nnn[nH]3)nc2OCCO)c1 [Example 10]                  1.11
3  COc1ccccc1Oc1c(NS(=O)(=O)c2ccc(C(C)(C)C)cc2)nc(C(=O)Nc2ccccc2)nc1OCCO [Example 8]                  1.11
4  COc1ccc(S(=O)(=O)Nc2nc(C(=O)Nc3ccccc3)nc(OCCO)c2Oc2cccc(OC)c2)cc1 [Example 7]                  1.26
5  COc1cccc(Oc2c(NS(=O)(=O)c3ccc(C(C)(C)C)cc3)nc(C(=O)O)nc2OCCO)c1 [Example 1]                  1.86
6  COc1ccccc1Oc1c(NS(=O)(=O)c2ccc(C(C)(C)C)cc2)nc(C(=O)O)nc1OCCO [Example 5]                  1.21
7  COc1cccc(Oc2c(NS(=O)(=O)c3ccc(C(C)(C)C)cc3)nc(C(=O)Nc3ccccc3)nc2OCCO)c1 [Example 6]                  1.58

What log10 of IC50 value was documented for this compound, COc1ccc(Cl)c(Oc2c(NS(=O)(=O)c3ccc(C(C)(C)C)cc3)nc(C(=O)O)nc2OCCO)c1 [Example 2] ?
0.26

Value source: patent US5856484A
